# Tested on: CbCln3 +/+ GFP-LC3 cerebellar neuronal cells
# Procedure Details: fraction of GFP-LC3-positive cells (≥5 vesicles/cell); higher = more autophagosome accumulation
Counter-ions that a name gives are not always drawn. Whole data set: some 1,700 compounds, median “fraction of GFP-LC3-positive cells (≥5 vesicles/cell)” near 0.058, cut for the highest 2% near 0.59. Only a selection was taken, and the highest values are over-represented in it overall.
// reported fraction of GFP-LC3-positive cells per item
Please give only the number in your answer, with no unit.

Molecule	fraction of GFP-LC3-positive cells
CCCCCCCCCCCCCCCCOC[C@H](COP(=O)([O-])OCC[N+](C)(C)C)OC(C)=O	0.0259
COc1cc([C@@H]2c3cc4c(cc3[C@H](O)[C@H]3COC(=O)[C@H]23)OCO4)cc(OC)c1OC	0.682
Clc1ccc(C2CC3CCC2N3)cn1 (racemic) [epibatidine (+/-)]	0.0633
CCCCCC1OC1C/C=C\CCCCCCCC(=O)O (stereo not drawn) [Leukotoxin B (12,13-EODE)]	0.0763
CNc1ccc2oc(C[C@@H]3OC4(CC[C@@H]3C)O[C@H](C(C)C(=O)c3ccc[nH]3)[C@H](C)C[C@H]4C)nc2c1C(=O)O (stereo partly drawn)	0.276

Data request: Data request, read-out fraction of GFP-LC3-positive cells, for C[C@H]1CCC/C=C/C2C[C@H](O)C[C@H]2[C@H](O)/C=C/C(=O)O1 (stereo partly drawn)
Data returned: 0.0802

Data request: Need fraction of GFP-LC3-positive cells of CC(C)[C@]12O[C@H]1[C@@H]1O[C@]13[C@]1(O[C@H]1C[C@H]1C4=C(CC[C@@]13C)C(=O)OC4)[C@@H]2O [Triptolide] , thanks.
Data returned: 0.268

Data request: Given the molecule CCCC[C@@H](C)[C@@H](OC(=O)C[C@@H](CC(=O)O)C(=O)O)[C@H](C[C@@H](C)C[C@H](O)CCCC[C@@H](O)C[C@H](O)[C@H](C)N)OC(=O)C[C@H](CC(=O)O)C(=O)O , what is its reported fraction of GFP-LC3-positive cells?
Data returned: 0.0462

Data request: Entry CN1CCC2=C[C@H](O)[C@H]3OC(=O)c4cc5c(cc4[C@H]3[C@@H]21)OCO5 [Hippeastrine hydrobromide] has what fraction of GFP-LC3-positive cells?
Data returned: 0.0629

Data request: Any idea what fraction of GFP-LC3-positive cells was measured for CCN(CC)C(=O)N[C@H]1C[C@@H]2c3cccc4[nH]cc(c34)C[C@H]2N(C)C1.O=C(O)/C=C\C(=O)O [S(-)-terguride hydrogen maleate] ?
Data returned: 0.0461

Data request: Requested field: fraction of GFP-LC3-positive cells. Item: O.O.O.O=C1OC2(c3cc(Br)c([O-])cc3Oc3c2cc(Br)c([O-])[c]3[Hg][OH])c2ccccc21.[Na+].[Na+] (stereo not drawn)
Data returned: 0.957

Data request: Consider the molecule C/C1=C/C(=O)O[C@@H]2C[C@@H](CC[C@H](C)/C=C\CC1)O[C@@](O)([C@@H]1CSC(=O)N1)C2 and give its measured fraction of GFP-LC3-positive cells.
Data returned: 0.94

Data request: Quick one: fraction of GFP-LC3-positive cells of C/C=C(/C)C(=O)O[C@H]1C(C)=C2[C@H]([C@@H]1OC(=O)CCCCCCC)[C@@](C)(OC(C)=O)C[C@H](OC(=O)CCC)[C@@]1(O)[C@H]2OC(=O)[C@@]1(C)O ?
Data returned: 0.665

====

# System: CbCln3 +/+ GFP-LC3 cerebellar neuronal cells
# Procedure Details: fraction of GFP-LC3-positive cells (≥5 vesicles/cell); higher = more autophagosome accumulation
Whole data set: some 1,700 compounds, median “fraction of GFP-LC3-positive cells (≥5 vesicles/cell)” near 0.058, cut for the highest 2% near 0.59. Only a selection was taken, and the highest values are over-represented in it overall.
The compounds listed here are annotated with their fraction of GFP-LC3-positive cells.

Look over these answered cases.
Compound	fraction of GFP-LC3-positive cells
CN[C@@H]1C[C@H]2O[C@@](C)([C@@H]1OC)n1c3ccccc3c3c4c(c5c6ccccc6n2c5c31)C(=O)NC4 [staurosporine]	0.542
COC(=O)[C@@]1(O)C[C@@H]2O[C@@]1(C)n1c3ccccc3c3c4c(c5c6ccccc6n2c5c31)C(=O)NC4	0.16
CCCCC/C=C\C/C=C\C/C=C\C/C=C\CCCC(=O)NCCO [Anandamide (20:4, n-6)]	0.0367

Data request: Hello, I am looking for reported fraction of GFP-LC3-positive cells with CbCln3 +/+ GFP-LC3 cerebellar neuronal cells for CCN1C[C@]2(C)CC[C@H](O)[C@]34C1[C@H](C[C@H]23)[C@@]1(O)C[C@H](OC)[C@H]2C[C@@H]4[C@@H]1C2O (stereo not given in full) [Karakoline] . Could you help?
Data returned: 0.0388

Data request: Hello, I am looking for reported fraction of GFP-LC3-positive cells with CbCln3 +/+ GFP-LC3 cerebellar neuronal cells for CC(C)(C)c1cc(C=C(C#N)C#N)cc(C(C)(C)C)c1O [tyrphostin 9] . Could you help?
Data returned: 0.67

Data request: Give recorded fraction of GFP-LC3-positive cells with CbCln3 +/+ GFP-LC3 cerebellar neuronal cells for the following compound: Cl.O[C@@H]1CCCC[C@H]1N1CCC(c2ccccc2)CC1 [L(-)-vesamicol hydrochloride]
Data returned: 0.076

Data request: Quick check: fraction of GFP-LC3-positive cells on CbCln3 +/+ GFP-LC3 cerebellar neuronal cells, item CCCCC/C=C\C/C=C\C/C=C\C/C=C\CCCC(=O)NCCO ?
Data returned: 0.0573

====

Measured fraction of GFP-LC3-positive cells accompanies every entry in the list below.
# Tested on: CbCln3 +/+ GFP-LC3 cerebellar neuronal cells
# Procedure Details: fraction of GFP-LC3-positive cells (≥5 vesicles/cell); higher = more autophagosome accumulation
Over roughly 1,700 compounds, “fraction of GFP-LC3-positive cells (≥5 vesicles/cell)” has its median near 0.058; the highest 2% begin near 0.59. This is one part of a sample in which the highest values are shown more often than they occur.
// no unit string in output, number only

Molecule	fraction of GFP-LC3-positive cells
C=C1[C@@H](C)[C@H]2[C@H](Cc3ccccc3)NC(=O)[C@]23[C@H](OC(C)=O)/C=C/[C@](C)(O)C(=O)[C@@H](C)C/C=C/[C@H]3[C@@H]1O	0.411

Data request: Request: fraction of GFP-LC3-positive cells, test system CbCln3 +/+ GFP-LC3 cerebellar neuronal cells, entry CCCCCC[C@H]1C(=O)O[C@H](C)C(NC(=O)c2cccc(NC=O)c2O)C(=O)O[C@@H](C)[C@@H]1OC(=O)CC(C)C (stereo not given in full) [Antimycin A]
Data returned: 0.0705

Data request: # returns recorded fraction of GFP-LC3-positive cells (system: CbCln3 +/+ GFP-LC3 cerebellar neuronal cells) for COc1ccc2c(c1OC)C(=O)O[C@@H]2[C@H]1c2cc3c(cc2CCN1C)OCO3.Cl [Hydrastine hydrochloride]
Data returned: 0.0565

====

# Test system: CbCln3 +/+ GFP-LC3 cerebellar neuronal cells
# Procedure Details: fraction of GFP-LC3-positive cells (≥5 vesicles/cell); higher = more autophagosome accumulation
Over roughly 1,700 compounds, “fraction of GFP-LC3-positive cells (≥5 vesicles/cell)” has its median near 0.058; the highest 2% begin near 0.59. Only a selection was taken, and the highest values are over-represented in it overall.
Experimental Endpoint: fraction of GFP-LC3-positive cells
// keep it numeric: no unit symbol after the value

Data request: Could you share which fraction of GFP-LC3-positive cells value was measured for COc1cc2c(c(OC)c1OC)-c1ccc(O)c(=O)cc1[C@@H](N)CC2 ?
Data returned: 0.0619

Data request: Consider the molecule shown here: COC1=C[C@@H]2C3=C([C@@H]2C1=O)[C@@H](NC(C)=O)CCc1cc(OC)c(OC)c(OC)c13 What is its recorded fraction of GFP-LC3-positive cells?
Data returned: 0.0307

Data request: Need fraction of GFP-LC3-positive cells of N#CC(C#N)=NNc1ccc(OC(F)(F)F)cc1 , thanks.
Data returned: 0.918

====

Attribute: fraction of GFP-LC3-positive cells
# Test system: CbCln3 +/+ GFP-LC3 cerebellar neuronal cells
# Procedure Details: fraction of GFP-LC3-positive cells (≥5 vesicles/cell); higher = more autophagosome accumulation
Over roughly 1,700 compounds, “fraction of GFP-LC3-positive cells (≥5 vesicles/cell)” has its median near 0.058; the highest 2% begin near 0.59. What follows is part of a selection rich in the highest values, with near analogues and random picks from the rest.
Quick one: just the number, no unit, thanks!

See these solved cases before continuing.
Compound	Readout Number
CN1Cc2c(ccc3c2OCO3)[C@@H]2[C@H]1c1cc3c(cc1C[C@@H]2O)OCO3.O [Chelidonine (+)]	0.593
CC1=CC(=O)C2=C(C)C[C@H](O)[C@@H]3[C@H](OC(=O)[C@H]3C)[C@@H]12.O	0.0585
COc1ccc2c(c1OC)CN1CCc3cc4c(cc3C1C2)OCO4 (configuration not stated) [(d,l)-Tetrahydroberberine]	0.0361
C[N+]1(C)CCCC(OC(=O)C(O)(c2ccccc2)c2ccccc2)C1.[Br-] (configuration not stated) [Mepenzolate bromide]	0.0681

Data request: fraction of GFP-LC3-positive cells for CCCCCC1OC1C/C=C\CCCCCCCC(=O)O (configuration not stated) ?
Data returned: 0.062

Data request: GET /values?readout=fraction of GFP-LC3-positive cells&item= O=C1C=C2C=C[C@@H]3CC2(O1)[C@H]1CCCCN31
Data returned: 0.0519

Data request: GET /values?readout=fraction of GFP-LC3-positive cells&item= CN1C2CCCC1CC(=O)C2.Cl [Pseudopelletierine hydrochloride]
Data returned: 0.111

Data request: Could you tell me which fraction of GFP-LC3-positive cells is on file for OC[C@H]1O[C@@H](n2cnc3cc(Cl)c(Cl)cc32)C(O)[C@H]1O (some centres not stated) ?
Data returned: 0.0687

Data request: Requested read-out: fraction of GFP-LC3-positive cells. Entry: O=c1[nH]c2ccccc2n1C1CCN(CCCC(c2ccc(F)cc2)c2ccc(F)cc2)CC1 [Pimozide]
Data returned: 0.0546

Data request: I have this compound here, CC(C)(C)NCC(O)c1cc(Cl)c(N)c(Cl)c1.Cl (configuration not stated) [Clenbuterol hydrochloride] , and I need its recorded fraction of GFP-LC3-positive cells.
Data returned: 0.0519

Data request: What does the data say about its fraction of GFP-LC3-positive cells? Entry: CC[C@@]1(O)C(=O)OCc2c1cc1n(c2=O)Cc2cc3ccccc3nc2-1 [Camptothecine (S,+)]
Data returned: 0.321

Data request: Need fraction of GFP-LC3-positive cells of C[C@@H]1O[C@@H](O[C@@H]2C=C3CCC4C(CC[C@]5(C)[C@@H](c6ccc(=O)oc6)CC[C@]45O)[C@@]3(C)CC2)[C@H](O)[C@H](O)[C@H]1O (some centres not stated) , thanks.
Data returned: 0.0563
